- assay.protocol: in vitro
- measurement.context: human, hela cells, % viability
endpoint.name: viability at 28.5 h, 10 µM

Study these solved cases before continuing.
# molecule, endpoint.name, assay.result
measured = [
    ("CS(=O)(=O)N[C@H]1CO[C@H]2[C@@H]1OC[C@@H]2Nc1nccc(-c2cccs2)n1", "viability at 28.5 h, 10 µM", "92%"),
    ("COCc1cccc(-c2nccnc2OC(c2ccccc2)c2ccccc2)c1", "viability at 28.5 h, 10 µM", "101%"),
    ("C[C@@H](Nc1cncc(-c2ccccc2CO)n1)c1ccccc1", "viability at 28.5 h, 10 µM", "106%"),
    ("Cc1c(C(=O)N(CC(=O)O)C2CC2)nnn1-c1ccc(Cl)cc1F", "viability at 28.5 h, 10 µM", "91.1%"),
    ("Cc1ccc(CN(CCCN(C)C)Cc2cnc(C)n2C)o1", "viability at 28.5 h, 10 µM", "95.4%"),
]

# per-item lookup of viability at 28.5 h, 10 µM; items listed below
1. COc1cc(NC(=O)COc2cc(C)cc(C)c2)c(C(=O)O)cc1OC
2. O=C(Nc1ncn(CC(=O)N2CCCCCC2)n1)c1ccsc1
3. O=C(CC1SC(NC2CCCCCC2)=NC1=O)NCc1c(F)cccc1Cl (centres unmarked)
4. NC(=O)COc1ccc(CNc2ccc(Oc3ccccc3)cc2)cc1Cl

["93.8%", "99.4%", "89.7%", "89.4%"]

# per-item lookup of viability at 28.5 h, 10 µM; items listed below
1. OCC1COCCN(c2ncnc3c2CCC3)C1 (centres unmarked)
2. Cc1cccc(N/C=C(/C#N)c2nc(-c3ccc4c(c3)OCO4)cs2)c1C
3. CN(C)CCCNC(=O)C1CCCN(c2nc3c(-c4ccccc4)csc3c(=O)[nH]2)C1 (centres unmarked)
4. Cc1nccn1CCNC(=O)CCc1cn(C)c2ccccc12
5. Cc1cc(COc2nc3ccccc3nc2NC(C)C(C)C)no1 (centres unmarked)

103%
96.4%
94.6%
86.1%
117%

# per-item lookup of viability at 28.5 h, 10 µM; items listed below
1. Cc1ccc(/C(N)=N/OC(=O)COc2cccc3ccccc23)cc1
2. Cc1ccnc(NCC2CCN(CC(=O)NC3(C#N)CCCC3)C2)c1 (centres unmarked)
3. CCC1CCCCN1C(=O)c1ccccc1OC (centres unmarked)
4. O=C(Cn1cnnn1)N1CCc2ccccc21

1. 98.5%
2. 85.8%
3. 99.4%
4. 97.4%

# per-item lookup of viability at 28.5 h, 10 µM; items listed below
1. CCOC(=O)c1c(NC(=O)CSc2nnc3ccccn23)sc2c1CCC(C)C2 (centres unmarked)
2. O=C(Nc1ccccc1[N+](=O)[O-])C1(c2ccccc2)CCN(S(=O)(=O)c2ccccc2)CC1

["89%", "85.9%"]
